Target: GABA A α5 (α5β3γ2) (Homo sapiens, UniProt P18507+P31644)
Test: [3H]flumazenil competition binding assay, human GABA A α5 receptors in HEK293 cells
Details: competition for [3H]flumazenil (0.5 nM); HEK293 cells expressing human (transiently transfected) receptors; means of two determinations; read-out: hKi GABA A α5
pKi: −log10 of the molar value.
Recorded pKi values for a group of molecules are listed next.

COMPOUND STRUCTURE STRING | pKi
O=C(NC1CCOCC1)c1ccc(OCc2c(-c3ccccn3)noc2CO)nc1 | 8.96
CCCCc1noc(CO)c1COc1ccc(C(=O)NC2(C)COC2)cn1 | 8.06
CCCCc1noc(CO)c1COc1ccc(C(=O)NCC(F)(F)F)cn1 | 7.99
CC(C)(CO)NC(=O)c1ccc(OCc2c(-c3ccc(F)cc3)noc2CO)nc1 | 8.00
O=C(c1ccc(OCc2c(-c3ccc(F)cc3)noc2CO)nc1)N1CCS(=O)(=O)CC1 | 8.07

* * *

Recorded pKi values for a group of molecules are listed next.
Target: GABA A α5 (α5β3γ2) (Homo sapiens, UniProt P18507+P31644)
Construct: expressed in transfected cells; host or cells: HEK293 (transiently transfected), membranes
Assay: [3H]flumazenil competition binding assay, human GABA A α5 receptors in HEK293 cells
Conditions: competition for [3H]flumazenil (0.5 nM); HEK293 cells expressing human (transiently transfected) receptors; means of two determinations; read-out: hKi GABA A α5
pKi: −log10 of the molar value.

MOLECULE | pKi
O=C(c1ccc(OCc2c(-c3ccc(F)cn3)noc2CO)nc1)N1CCS(=O)(=O)CC1 | 7.87
CC(C)NC(=O)c1ccc(OCc2c(-c3ccc(F)cc3)noc2CO)nc1 | 8.96
O=C(N[C@@H]1CCC[C@H]1O)c1ccc(OCc2c(-c3ccc(Cl)cc3)noc2CO)nc1 (single isomer, unassigned) | 8.92
CC(NC(=O)c1ccc(OCc2c(-c3ccc(F)c(F)c3)noc2CO)nc1)C(F)(F)F (centres unmarked) | 8.74
O=C(c1ccc(OCc2c(-c3ccccn3)noc2CO)nc1)N1CCS(=O)(=O)CC1 | 7.97
O=C(c1ccc(OCc2c(-c3ccc(Cl)cc3)noc2CO)nc1)N1CCS(=O)(=O)CC1 | 8.46
O=C(NC1CCOC1)c1ccc(OCc2c(-c3ccccn3)noc2CO)nc1 (centres unmarked) | 8.74
CC[C@@H](CO)NC(=O)c1ccc(OCc2c(-c3ccc(F)cc3)noc2CO)nc1 | 9.22
CN(C)C(=O)c1ccc(OCc2c(-c3ccc(Cl)cc3)noc2CO)nc1 | 7.36
O=C(NCC1CC1)c1ccc(OCc2c(-c3ccc(F)c(F)c3)noc2CO)nc1 | 8.40
O=C(NN1CCOCC1)c1ccc(OCc2c(-c3ccccn3)noc2CO)nc1 | 8.77
O=C(c1ccc(OCc2c(-c3ccccn3)noc2CO)nc1)N1CCOCC1 | 7.17
CN(C)NC(=O)c1ccc(OCc2c(-c3ccccn3)noc2CO)nc1 | 8.60
O=C(NC1CCOCC1)c1ccc(OCc2c(-c3ccc(F)cc3)noc2CO)nc1 | 8.89
CCCCc1noc(CO)c1COc1ccc(C(=O)NC2CCC2)cn1 | 7.86
O=C(N[C@H]1CCC[C@@H]1O)c1ccc(OCc2c(-c3ccc(F)cc3)noc2CO)nc1 (racemic) | 8.80
CCCCc1noc(CO)c1COc1ccc(C(=O)NC(C)C)cn1 | 7.80

* * *

Target: GABA A α5 (α5β3γ2) (Homo sapiens, UniProt P18507+P31644)
Assay: [3H]flumazenil competition binding assay, human GABA A α5 receptors in HEK293 cells
Conditions: competition for [3H]flumazenil (0.5 nM); HEK293 cells expressing human (transiently transfected) receptors; means of two determinations; read-out: hKi GABA A α5
pKi: −log10 of the molar value.
ASSAY READOUT: pKi

MOLECULE | ASSAY READOUT | VALUE REPORTED
CC1(NC(=O)c2ccc(OCc3c(-c4ccc(F)cc4)noc3CO)nc2)COC1 | pKi | 8.74
O=C(NCC(F)(F)C(F)(F)F)c1ccc(OCc2c(-c3ccc(F)c(F)c3)noc2CO)nc1 | pKi | 8.17
O=C(NC1CC1)c1ccc(OCc2c(-c3ccc(F)c(F)c3)noc2CO)nc1 | pKi | 8.51
CC(NC(=O)c1ccc(OCc2c(-c3ccc(F)cc3)noc2CO)nc1)C(F)(F)F (centres unmarked) | pKi | 8.85
O=C(NCC1CC1)c1ccc(OCc2c(-c3ccc(F)cc3)noc2CO)nc1 | pKi | 8.77
CC(C)(CO)NC(=O)c1ccc(OCc2c(-c3ccc(Cl)cc3)noc2CO)nc1 | pKi | 8.41
CC(C)(CO)NC(=O)c1ccc(OCc2c(-c3ccc(F)c(F)c3)noc2CO)nc1 | pKi | 7.87
CC(C)(C)NC(=O)c1ccc(OCc2c(-c3ccc(F)c(F)c3)noc2CO)nc1 | pKi | 7.93
C[C@H](NC(=O)c1ccc(OCc2c(-c3ccc(Cl)cc3)noc2CO)nc1)C(F)(F)F | pKi | 8.77
CC[C@H](CO)NC(=O)c1ccc(OCc2c(-c3ccc(F)cc3)noc2CO)nc1 | pKi | 8.46
CC(C)NC(=O)c1ccc(OCc2c(-c3ccc(Cl)cc3)noc2CO)nc1 | pKi | 9.40
Cn1cc(NC(=O)c2ccc(OCc3c(-c4ccc(Cl)cc4)noc3CO)nc2)cn1 | pKi | 9.15
O=C(NN1CCCC1)c1ccc(OCc2c(-c3ccc(F)c(F)c3)noc2CO)nc1 | pKi | 8.35
O=C(NCC(F)(F)F)c1ccc(OCc2c(-c3ccc(F)cc3)noc2CO)nc1 | pKi | 8.89
CC[C@H](CO)NC(=O)c1ccc(OCc2c(-c3ccc(F)c(F)c3)noc2CO)nc1 | pKi | 8.36
O=C(NC1CCOCC1)c1ccc(OCc2c(-c3ccc(F)c(F)c3)noc2CO)nc1 | pKi | 8.70
CC(C)NC(=O)c1ccc(OCc2c(-c3ccccn3)noc2CO)nc1 | pKi | 9.15
